System: Mus musculus
Test Name: Mean survival time which expresses the antimalarial activity of compound was measured against Plasmodium berghei in mice (Mus musculus) at 160 mg/kg dose
Format: functional
# Delta MST annotations
Dear colleague, please return just the value in days, with no unit written.

// solved cases for Delta MST follow
> print(dat)
                                   molecule  units.of.measure  measured.value
1   CCc1cc(C)c2cc(OC)cc(NCCCCCCN(CC)CC)c2n1              days             0.3
2  CCN(CC)CCCCCCNc1cc(OC)cc2c(C)cc(CCBr)nc12              days               0
3   CCc1cc(C)nc2c(NCCCCCCN(CC)CC)cc(OC)cc12              days             2.7

q: For the molecule CCc1cc(C)nc2c(NC(C)CCCN)cc(OC)cc12 (centres undefined) , what Delta MST is on record?
a: 5.1
